# System: HUH-7
# details: read-out: IC50 HUH-7; CCK-8, 48 h
Bridge positions count the residues as written; N and C are the ends. Square brackets hold non-standard residues; d marks the D form. Peptide text beside a SMILES is read from it. S5 = C=CCCC[C@](C)(N)C(=O)O
measured.quantity: IC50 (µM)
Answers are plain numbers, in µM.

The reported value for CC(C)C[C@H](NC(=O)[C@H](CCCCN)NC(=O)[C@]1(C)CCCC=CCCC[C@](C)(NC(=O)[C@H](Cc2ccccc2)NC(=O)[C@H](CCCNC(=N)N)NC(=O)[C@H](CCCCN)NC(=O)[C@@H](N)C(C)C)C(=O)N[C@@H](CCCCN)C(=O)N[C@@H](Cc2ccccc2)C(=O)N[C@@H](Cc2ccccc2)C(=O)N1)C(=O)N[C@@H](CCCCN)C(=O)N[C@@H](CCCCN)C(=O)N[C@@H](CC(C)C)C(=O)N[C@H](C(N)=O)C(C)C [B1-L-2, VKRFS5KFFS5KLKKLV-NH2] (H-VKRF[S5]KFF[S5]KLKKLV-NH2; staple 5-9; N-terminus assumed) in terms of IC50 is 6.18

---

# Tested on: U87
# details: read-out: IC50 U87; CCK-8, 48 h
Bridge positions count the residues as written; N and C are the ends. Square brackets hold non-standard residues; d marks the D form. Peptide text beside a SMILES is read from it. S5 = C=CCCC[C@](C)(N)C(=O)O
measured.quantity: IC50 (µM)
One number for each entry, in µM.

The reported value for CC(C)C[C@H](NC(=O)[C@H](CCCCN)NC(=O)[C@]1(C)CCCC=CCCC[C@](C)(NC(=O)[C@H](Cc2ccccc2)NC(=O)[C@H](CCCNC(=N)N)NC(=O)[C@H](CCCCN)NC(=O)[C@@H](N)C(C)C)C(=O)N[C@@H](CCCCN)C(=O)N[C@@H](Cc2ccccc2)C(=O)N[C@@H](Cc2ccccc2)C(=O)N1)C(=O)N[C@@H](CCCCN)C(=O)N[C@@H](CCCCN)C(=O)N[C@@H](CC(C)C)C(=O)N[C@H](C(N)=O)C(C)C [B1-L-2, VKRFS5KFFS5KLKKLV-NH2] (H-VKRF[S5]KFF[S5]KLKKLV-NH2; staple 5-9; N-terminus assumed) in terms of IC50 is 8.86

---

# target.or.test.system: α-chymotrypsin (Bos taurus)
# measurement.description: in vitro
# details: α-chymotrypsin (0.5 ng/μl) in PBS buffer
Ends that are not written are not given here.
measured.quantity: half-life (min)
One number for each entry, in min.

VKRFKKFFRKLKKLV-NH2 [B1-Leu, VKRFKKFFRKLKKLV-NH2] : 8.5

// switching to the query substance
Field half-life (system: α-chymotrypsin (Bos taurus)) for entry VKRFKKFFRKLKKSV-NH2 [B1, VKRFKKFFRKLKKSV-NH2, reference compound] = 8.3

---

# Test system: rabbit red blood cells
# details: 4% rabbit red blood cells, 1 h, 37°C
Bridge positions count the residues as written; N and C are the ends. Square brackets hold non-standard residues; d marks the D form. Peptide text beside a SMILES is read from it. S5 = C=CCCC[C@](C)(N)C(=O)O
measured.quantity: HC50, half hemolysis concentration

The reported value for CC(C)C[C@H](NC(=O)[C@H](CCCCN)NC(=O)[C@]1(C)CCCC=CCCC[C@](C)(NC(=O)[C@H](Cc2ccccc2)NC(=O)[C@H](CCCNC(=N)N)NC(=O)[C@H](CCCCN)NC(=O)[C@@H](N)C(C)C)C(=O)N[C@@H](CCCCN)C(=O)N[C@@H](Cc2ccccc2)C(=O)N[C@@H](Cc2ccccc2)C(=O)N1)C(=O)N[C@@H](CCCCN)C(=O)N[C@@H](CCCCN)C(=O)N[C@@H](CC(C)C)C(=O)N[C@H](C(N)=O)C(C)C [B1-L-2, VKRFS5KFFS5KLKKLV-NH2] (H-VKRF[S5]KFF[S5]KLKKLV-NH2; staple 5-9; N-terminus assumed) in terms of HC50, half hemolysis concentration is >80 µM

---

# target.or.test.system: α-chymotrypsin (Bos taurus, UniProt P00766)
# measurement.description: in vitro
# details: α-chymotrypsin
Bridge positions count the residues as written; N and C are the ends. Square brackets hold non-standard residues; d marks the D form. Peptide text beside a SMILES is read from it. S5 = C=CCCC[C@](C)(N)C(=O)O
measured.quantity: half-life

The reported value for CC(C)C[C@H](NC(=O)[C@H](CCCCN)NC(=O)[C@H](CCCNC(=N)N)NC(=O)[C@H](Cc1ccccc1)NC(=O)[C@H](Cc1ccccc1)NC(=O)[C@]1(C)CCC/C=C\CCC[C@](C)(NC(=O)[C@@H](N)C(C)C)C(=O)N[C@@H](CCCNC(=N)N)C(=O)N[C@@H](Cc2ccccc2)C(=O)N[C@@H](CCCCN)C(=O)N1)C(=O)N[C@@H](CCCCN)C(=O)N[C@@H](CCCCN)C(=O)N[C@@H](CC(C)C)C(=O)N[C@H](C(N)=O)C(C)C [B1-L-1, VS5RFKS5FFRKLKKLV-NH2] (H-V[S5]RFK[S5]FFRKLKKLV-NH2; staple (Z) 2-6) in terms of half-life is > 1 h

---

# Test system: rabbit red blood cells
# details: 4% rabbit red blood cells, 1 h, 37°C
Bridge positions count the residues as written; N and C are the ends. Square brackets hold non-standard residues; d marks the D form. Peptide text beside a SMILES is read from it. R8 = C=CCCCCCC[C@@](C)(N)C(=O)O; S5 = C=CCCC[C@](C)(N)C(=O)O
Can you tell me HC50, half hemolysis concentration for the items I'm about to list?

Parameter requested: HC50, half hemolysis concentration. Apply to each item below.
1. CC(C)C[C@@H]1NC(=O)[C@H](CCCCN)NC(=O)[C@@](C)(NC(=O)[C@H](Cc2ccccc2)NC(=O)[C@H](Cc2ccccc2)NC(=O)[C@H](CCCCN)NC(=O)[C@H](CCCCN)NC(=O)[C@H](Cc2ccccc2)NC(=O)[C@H](CCCNC(=N)N)NC(=O)[C@H](CCCCN)NC(=O)[C@@H](N)C(C)C)CCCC=CCCC[C@@](C)(C(=O)N[C@@H](CC(C)C)C(=O)N[C@H](C(N)=O)C(C)C)NC(=O)[C@H](CCCCN)NC1=O [B1-L-4, VKRFKKFFS5KLKS5LV-NH2] (H-VKRFKKFF[S5]KLK[S5]LV-NH2; staple 9-13; N-terminus assumed)
2. CC(C)C[C@H](NC(=O)[C@H](CCCCN)NC(=O)[C@H](CCCCN)NC(=O)[C@H](CC(C)C)NC(=O)[C@]1(C)CCCC=CCCC[C@](C)(NC(=O)[C@H](CCCCN)NC(=O)[C@H](Cc2ccccc2)NC(=O)[C@H](CCCNC(=N)N)NC(=O)[C@H](CCCCN)NC(=O)[C@@H](N)C(C)C)C(=O)N[C@@H](Cc2ccccc2)C(=O)N[C@@H](Cc2ccccc2)C(=O)N[C@@H](CCCNC(=N)N)C(=O)N1)C(=O)N[C@H](C(N)=O)C(C)C [B1-L-3, VKRFKS5FFRS5LKKLV-NH2] (H-VKRFK[S5]FFR[S5]LKKLV-NH2; staple 6-10; N-terminus assumed)
3. CC(C)C[C@@H]1NC(=O)[C@H](CCCCN)NC(=O)[C@H](CCCNC(=N)N)NC(=O)[C@H](Cc2ccccc2)NC(=O)[C@H](Cc2ccccc2)NC(=O)[C@](C)(NC(=O)[C@H](CCCCN)NC(=O)[C@H](Cc2ccccc2)NC(=O)[C@H](CCCNC(=N)N)NC(=O)[C@H](CCCCN)NC(=O)[C@@H](N)C(C)C)CCCCCCC=CCCC[C@@](C)(C(=O)N[C@@H](CC(C)C)C(=O)N[C@H](C(N)=O)C(C)C)NC(=O)[C@H](CCCCN)NC1=O [B1-L-7, VKRFKR8FFRKLKS5LV-NH2] (H-VKRFK[R8]FFRKLK[S5]LV-NH2; staple 6-13; N-terminus assumed)

>80 µM
>80 µM
>80 µM

---

# Test system: U87
# details: read-out: IC50 U87; CCK-8, 48 h
Bridge positions count the residues as written; N and C are the ends. Square brackets hold non-standard residues; d marks the D form. Peptide text beside a SMILES is read from it. R8 = C=CCCCCCC[C@@](C)(N)C(=O)O; S5 = C=CCCC[C@](C)(N)C(=O)O
measured.quantity: pIC50
Answers are plain numbers, as −log10 of the molar value.

Illustrative cases are given below, each with its answer.
CC(C)C[C@@H]1NC(=O)[C@H](CCCCN)NC(=O)[C@H](CCCNC(=N)N)NC(=O)[C@H](Cc2ccccc2)NC(=O)[C@H](Cc2ccccc2)NC(=O)[C@](C)(NC(=O)[C@H](CCCCN)NC(=O)[C@H](Cc2ccccc2)NC(=O)[C@H](CCCNC(=N)N)NC(=O)[C@H](CCCCN)NC(=O)[C@@H](N)C(C)C)CCCCCCC=CCCC[C@@](C)(C(=O)N[C@@H](CC(C)C)C(=O)N[C@H](C(N)=O)C(C)C)NC(=O)[C@H](CCCCN)NC1=O [B1-L-7, VKRFKR8FFRKLKS5LV-NH2] (H-VKRFK[R8]FFRKLK[S5]LV-NH2; staple 6-13; N-terminus assumed) : 4.90
CC(C)C[C@@H]1NC(=O)[C@H](CCCCN)NC(=O)[C@@](C)(NC(=O)[C@H](Cc2ccccc2)NC(=O)[C@H](Cc2ccccc2)NC(=O)[C@H](CCCCN)NC(=O)[C@H](CCCCN)NC(=O)[C@H](Cc2ccccc2)NC(=O)[C@H](CCCNC(=N)N)NC(=O)[C@H](CCCCN)NC(=O)[C@@H](N)C(C)C)CCCC=CCCC[C@@](C)(C(=O)N[C@@H](CC(C)C)C(=O)N[C@H](C(N)=O)C(C)C)NC(=O)[C@H](CCCCN)NC1=O [B1-L-4, VKRFKKFFS5KLKS5LV-NH2] (H-VKRFKKFF[S5]KLK[S5]LV-NH2; staple 9-13; N-terminus assumed) : 4.75

The reported value for CC(C)C[C@H](NC(=O)[C@H](CCCCN)NC(=O)[C@H](CCCCN)NC(=O)[C@H](CC(C)C)NC(=O)[C@]1(C)CCCC=CCCC[C@](C)(NC(=O)[C@H](CCCCN)NC(=O)[C@H](Cc2ccccc2)NC(=O)[C@H](CCCNC(=N)N)NC(=O)[C@H](CCCCN)NC(=O)[C@@H](N)C(C)C)C(=O)N[C@@H](Cc2ccccc2)C(=O)N[C@@H](Cc2ccccc2)C(=O)N[C@@H](CCCNC(=N)N)C(=O)N1)C(=O)N[C@H](C(N)=O)C(C)C [B1-L-3, VKRFKS5FFRS5LKKLV-NH2] (H-VKRFK[S5]FFR[S5]LKKLV-NH2; staple 6-10; N-terminus assumed) in terms of pIC50 is 5.44
